- test details: Solubility in various solvents
- Format: physicochemical
- Parameters: key: +++: dissolved well; ++: almost dissolved, but not completely dissolved and somewhat precipitated; +: opaquely dispersed; −: not dissolved but precipitated
- condition: MEK
measure name: Solubility in MEK

Please review the entries below; each comes with its answer.
O=S(=O)(O)CCCOc1ccc(O)cc1    +
Cc1cc(OCCCS(=O)(=O)O)ccc1O    +
O=S(=O)(O)CCCOc1ccc(OCc2ccccc2)cc1    ++
O=S(=O)(O)CCCOc1ccc(-c2ccccc2)cc1    +

Let us move to another entry and its Solubility in MEK.
# input Reported Solubility in MEK, compound `Cc1cccc(OCCCS(=O)(=O)O)c1` : ____
# output +

====

- test details: Solubility in various solvents
- Assay type: physicochemical
- Set-up: key: +++: dissolved well; ++: almost dissolved, but not completely dissolved and somewhat precipitated; +: opaquely dispersed; −: not dissolved but precipitated
- condition: NMP
- Procedure: Solubility properties of polyaniline ES in various organic solvents using the dopants of Examples were compared and checked in the same experimental conditions. […] After a basket mixing process, transmittances were measured and an average particle size was measured by using a particle size analyzer, and measurement results are as shown in Table 5.
measure name: Solubility in NMP

Please review the entries below; each comes with its answer.
Cc1cccc(OCCCS(=O)(=O)O)c1    ++
Cc1cc(OCCCS(=O)(=O)O)ccc1O    +++
O=S(=O)(O)CCCOc1ccc(-c2ccccc2)cc1    +++
O=S(=O)(O)CCCOc1ccc(OCc2ccccc2)cc1    +++

Let us move to another entry and its Solubility in NMP.
# input Reported Solubility in NMP, compound `O=S(=O)(O)CCCOc1ccc(O)cc1` : ____
# output +++

====

- test details: Solubility in various solvents
- Type: physicochemical
- Parameters: key: +++: dissolved well; ++: almost dissolved, but not completely dissolved and somewhat precipitated; +: opaquely dispersed; −: not dissolved but precipitated
- condition: isopropyl alcohol
measure name: Solubility in isopropyl alcohol

Please review the entries below; each comes with its answer.
O=S(=O)(O)CCCOc1ccc(-c2ccccc2)cc1    +
Cc1cc(OCCCS(=O)(=O)O)ccc1O    +++
O=S(=O)(O)CCCOc1ccc(O)cc1    ++
Cc1cccc(OCCCS(=O)(=O)O)c1    +++

# input Reported Solubility in isopropyl alcohol, compound `O=S(=O)(O)CCCOc1ccc(OCc2ccccc2)cc1` : ____
# output ++

====

- test details: Solubility in various solvents
- Assay type: physicochemical
- Parameters: key: +++: dissolved well; ++: almost dissolved, but not completely dissolved and somewhat precipitated; +: opaquely dispersed; −: not dissolved but precipitated
- condition: m-cresol
measure name: Solubility in m-cresol

Please review the entries below; each comes with its answer.
O=S(=O)(O)CCCOc1ccc(-c2ccccc2)cc1    +++
Cc1cc(OCCCS(=O)(=O)O)ccc1O    ++
Cc1cccc(OCCCS(=O)(=O)O)c1    ++
O=S(=O)(O)CCCOc1ccc(O)cc1    ++

Let us move to another entry and its Solubility in m-cresol.
# input Reported Solubility in m-cresol, compound `O=S(=O)(O)CCCOc1ccc(OCc2ccccc2)cc1` : ____
# output ++

====

- test details: Solubility in various solvents
- Type: physicochemical
- Design: key: +++: dissolved well; ++: almost dissolved, but not completely dissolved and somewhat precipitated; +: opaquely dispersed; −: not dissolved but precipitated
- condition: BuO—EtOH
measure name: Solubility in BuO—EtOH

O=S(=O)(O)CCCOc1ccc(-c2ccccc2)cc1    +
O=S(=O)(O)CCCOc1ccc(O)cc1    +++
O=S(=O)(O)CCCOc1ccc(OCc2ccccc2)cc1    +++
Cc1cccc(OCCCS(=O)(=O)O)c1    ++

Let us move to another entry and its Solubility in BuO—EtOH.
# input Reported Solubility in BuO—EtOH, compound `Cc1cc(OCCCS(=O)(=O)O)ccc1O` : ____
# output +++
